B1: CPXM2 (parent)
chain: EILGCPLPDPNNYYHRRNEMTTTD

Variants of: B1
protocol: protein stability index of a GFP-peptide fusion (GPS, HEK-293T) (PSI 1-6); higher = more stable;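 further: lentivirally expressed fusions sorted by FACS into six bins by GFP to DsRed ratio, PSI derived from sequencing read proportions per bin multiplied by bin number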
measurement.setup: c terminus: a fixed tail appended
readout.name: protein stability index
Write the value as a bare number.

Entry under review: M20P . Reported protein stability index?
3.92

Now try N18T .
3.6

Now try N12S .
3.09

Now try T22F .
2.77

Now try R17M .
3.8

Now try L3P .
4.7

Now try R16W .
2.76

Now try P8T .
3.12

Now try E19L .
2.22

Now try I2A .
4.51

Now try P10C .
3.26

Now try D24C .
2.86

Now try N11E .
4.07

Now try E19W .
2.09

Now try N18Y .
2.67

Now try D9A .
3.07

Now try D9L .
3.05

Now try M20I .
3.69

Now try M20L .
2.95

Now try P6W .
2.46

Now try G4P .
4.03

Now try Y13F .
3.35

Now try G4E .
4.09

Now try N18E .
4.01

Now try Y13N .
3.89

Now try Y13V .
4.03

Now try D24H .
2.76

Now try T21Y .
2.81

Now try E19M .
2.48

Now try P8W .
2.62

Now try I2G .
5.13

Now try T21I .
2.77

Now try I2H .
4.64

Now try C5D .
4.09

Now try Y13K .
4.14

Now try D24E .
3.53

Now try P8H .
2.82

Now try G4N .
2.93

Now try G4W .
2.77

Now try R17L .
2.7

Now try M20K .
3.53

Now try T22C .
3.15
